Target: human TLR8 (Homo sapiens, UniProt Q9NR97)
Sequence (Q9NR97 27-1041): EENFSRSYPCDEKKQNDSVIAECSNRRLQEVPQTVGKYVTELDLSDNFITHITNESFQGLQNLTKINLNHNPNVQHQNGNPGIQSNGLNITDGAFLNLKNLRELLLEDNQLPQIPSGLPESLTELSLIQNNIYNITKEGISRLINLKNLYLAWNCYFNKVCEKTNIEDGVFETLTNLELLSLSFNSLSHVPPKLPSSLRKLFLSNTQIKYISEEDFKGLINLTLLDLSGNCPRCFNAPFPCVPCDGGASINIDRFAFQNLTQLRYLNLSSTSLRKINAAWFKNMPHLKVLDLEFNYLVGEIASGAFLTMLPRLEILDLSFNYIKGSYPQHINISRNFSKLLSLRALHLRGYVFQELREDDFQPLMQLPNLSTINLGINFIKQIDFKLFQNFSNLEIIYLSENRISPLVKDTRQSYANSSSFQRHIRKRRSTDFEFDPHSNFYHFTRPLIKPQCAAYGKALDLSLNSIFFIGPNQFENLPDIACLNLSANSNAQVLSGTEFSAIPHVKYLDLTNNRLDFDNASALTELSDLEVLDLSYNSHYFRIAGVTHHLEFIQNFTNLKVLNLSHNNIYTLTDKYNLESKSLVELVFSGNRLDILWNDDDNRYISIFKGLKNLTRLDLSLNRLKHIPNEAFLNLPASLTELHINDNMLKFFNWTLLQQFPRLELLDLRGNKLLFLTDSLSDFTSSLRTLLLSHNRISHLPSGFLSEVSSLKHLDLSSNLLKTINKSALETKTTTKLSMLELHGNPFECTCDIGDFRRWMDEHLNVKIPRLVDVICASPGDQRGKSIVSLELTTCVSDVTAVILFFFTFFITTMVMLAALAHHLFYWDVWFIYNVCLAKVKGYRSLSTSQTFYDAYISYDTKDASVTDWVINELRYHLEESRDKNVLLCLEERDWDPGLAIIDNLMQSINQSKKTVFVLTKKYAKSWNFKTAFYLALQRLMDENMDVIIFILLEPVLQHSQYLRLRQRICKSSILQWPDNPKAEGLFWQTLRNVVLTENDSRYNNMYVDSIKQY
Test: TLR8 inhibition reporter assay (HEK-Blue SEAP)
Settings: HEK-Blue cells overexpressing human TLR8, R848 15.9 μM, 22 hour incubation
Source text: TLR7/8/9 Inhibition Reporter Assays HEK-Blue™-cells (Invivogen) overexpressing human TLR7, TLR8 or TLR9 receptors were used for screening inhibitors of these receptors using an inducible SEAP (secreted embryonic alkaline phosphatase) reporter gene under the control of the IFN-β minimal promoter fused to five NF-κB and AP-1-binding sites. […]
Field: label. Allowed values: TRUE (IC50 < 2 nM) or FALSE (IC50 >= 2 nM).

The examples below pair each entry with its known result.
COc1c(C)c(-c2cc3[nH]c(=O)n(C4CCC(N5CC(OC)C5)CC4)c3cc2C(C)C)cn2ncnc12 (centres unmarked) [Example 266] :: FALSE
CCCN1CCC(n2c(=O)[nH]c3cc(-c4cc(OC)c5ncnn5c4)c(C(C)C)cc32)CC1 [Example 155] :: FALSE
Cc1cc2c(cc1-c1cc(C)c3ncnn3c1)[nH]c(=O)n2C1CCN(C)CC1 [Example 3] :: FALSE
Cc1c(-c2cc3[nH]c(=O)n([C@@H]4CCCN(CC(C)(C)C)C4)c3cc2C(C)C)cn2ncnc2c1C [Example 152] :: FALSE
COc1cc(-c2cc3[nH]c(=O)n(C4CCC(N5CC[C@H](F)C5)CC4)c3cc2C(C)C)cn2ncnc12 (some centres unmarked) [Example 287] :: TRUE

is_below(IC50, 2 nM) for COc1cc(-c2cc3[nH]c(=O)n([C@@H]4CCCN(C5COC5)C4)c3cc2C(C)C)cn2ncnc12 [Example 135] ? FALSE

is_below(IC50, 2 nM) for CCC(CC)CN1CCC[C@@H](n2c(=O)[nH]c3cc(-c4cc(OC)c5ncnn5c4)c(C)cc32)C1 [Example 73] ? FALSE

is_below(IC50, 2 nM) for Cc1c(-c2cc3[nH]c(=O)n([C@@H]4CCCN(C)C4)c3cc2C(C)C)cn2ncnc2c1C [Example 147] ? FALSE

is_below(IC50, 2 nM) for COc1cc(-c2cc3[nH]c(=O)n(C4CCN(CC(=O)N(C)C)CC4)c3cc2C)cn2ncnc12 [Example 86] ? FALSE

is_below(IC50, 2 nM) for Cc1cc2c(cc1-c1cc(C)c3ncnn3c1)[nH]c(=O)n2C1CCCNC1 (centres unmarked) [1 EC] ? FALSE

is_below(IC50, 2 nM) for COc1c(C)c(-c2cc3[nH]c(=O)n(C4CCC(N5CCCOCC5)CC4)c3cc2C(C)C)cn2ncnc12 (single isomer, unassigned) [Example 261] ? FALSE

is_below(IC50, 2 nM) for CCC(CC)CN1CCC[C@@H](n2c(=O)[nH]c3cc(-c4cc(OC)c5ncnn5c4)c(C(C)C)cc32)C1 [Example 148] ? TRUE

is_below(IC50, 2 nM) for CCc1cc2c(cc1-c1cc(OC)c3ncnn3c1)[nH]c(=O)n2[C@@H]1CCCN(CC(C)(C)C)C1 [Example 180] ? FALSE

---

compounds and their reported pIC50
Target: UniProtKB Q9NYK1
Sequence (Q9NYK1 27-1049): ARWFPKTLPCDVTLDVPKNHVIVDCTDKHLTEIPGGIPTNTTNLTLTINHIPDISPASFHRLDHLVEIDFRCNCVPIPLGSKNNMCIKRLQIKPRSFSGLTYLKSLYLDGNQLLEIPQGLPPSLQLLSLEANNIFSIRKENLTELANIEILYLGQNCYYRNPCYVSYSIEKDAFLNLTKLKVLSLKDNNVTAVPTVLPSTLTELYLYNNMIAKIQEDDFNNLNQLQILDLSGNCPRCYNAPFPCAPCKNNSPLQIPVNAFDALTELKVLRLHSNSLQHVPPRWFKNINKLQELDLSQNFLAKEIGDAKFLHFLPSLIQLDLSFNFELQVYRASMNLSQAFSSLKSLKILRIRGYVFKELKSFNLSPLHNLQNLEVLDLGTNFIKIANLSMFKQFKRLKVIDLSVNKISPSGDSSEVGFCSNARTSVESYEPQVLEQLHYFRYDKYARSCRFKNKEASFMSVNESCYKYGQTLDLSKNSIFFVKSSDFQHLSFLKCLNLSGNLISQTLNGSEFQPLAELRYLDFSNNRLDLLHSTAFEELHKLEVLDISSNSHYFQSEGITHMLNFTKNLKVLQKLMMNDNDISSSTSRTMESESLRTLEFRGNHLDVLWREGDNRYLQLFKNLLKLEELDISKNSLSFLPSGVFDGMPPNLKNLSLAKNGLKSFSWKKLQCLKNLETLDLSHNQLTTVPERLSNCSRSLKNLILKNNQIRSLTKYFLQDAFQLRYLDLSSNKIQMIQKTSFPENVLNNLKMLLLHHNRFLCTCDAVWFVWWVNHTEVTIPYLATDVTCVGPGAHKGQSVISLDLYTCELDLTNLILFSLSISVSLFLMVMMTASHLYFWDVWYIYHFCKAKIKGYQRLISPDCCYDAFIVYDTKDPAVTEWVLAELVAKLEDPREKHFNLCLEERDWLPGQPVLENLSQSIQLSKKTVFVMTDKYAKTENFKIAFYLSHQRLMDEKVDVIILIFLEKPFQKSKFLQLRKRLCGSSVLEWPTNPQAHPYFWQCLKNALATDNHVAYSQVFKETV
Test: TLR7 inhibition reporter assay (HEK-Blue SEAP)
Conditions: HEK-Blue cells overexpressing human TLR7, gardiquimod 7.5 μM, 22 hour incubation
# pIC50 = -log10(concentration in molar units)

As a guide, the following entries are already answered.
Cc1cc2c(cc1-c1cc(C)c3ncnn3c1)[nH]c(=O)n2[C@@H]1CCCN(CC(N)=O)C1 :: 6.15
Cc1cc2c(cc1-c1cc(C)c3ncnn3c1)[nH]c(=O)n2[C@@H]1CCCN(CCC(F)(F)F)C1 :: 6.68

Record Cc1c(-c2cc3[nH]c(=O)n(C4CCC(N5CC6(COC6)C5)CC4)c3cc2C(C)C)cn2ncnc2c1C (single isomer, unassigned) [Example 281] , field pIC50: 7.91

Record CCC(C)N[C@H]1CC[C@@H](n2c(=O)[nH]c3cc(-c4cc(C)c5ncnn5c4)c(C)cc32)CC1 (stereo partly shown) , field pIC50: 7.69

Record COc1cc(-c2cc3[nH]c(=O)n([C@H]4CC[C@@H](NCC5CCCCC5)CC4)c3cc2C)cn2ncnc12 , field pIC50: 7.68

---

Target: UniProt:Q9NYK1
Test: TLR7 inhibition reporter assay (HEK-Blue SEAP)
Settings: HEK-Blue cells overexpressing human TLR7, gardiquimod 7.5 μM, 22 hour incubation
Endpoint: pIC50
# pIC50 = -log10(concentration in molar units)

As a guide, the following entries are already answered.
COC[C@@H]1CCN(C2CCC(n3c(=O)[nH]c4cc(-c5cc(OC)c6ncnn6c5)c(C(C)C)cc43)CC2)C1 (single isomer, unassigned) [Example 291] :: 8.77
COc1cc(-c2cc3[nH]c(=O)n([C@@H]4CCCN(C(C)C)C4)c3cc2C)cn2ncnc12 [Example 53] :: 7.48
Cc1cc2c(cc1-c1cc(C)c3ncnn3c1)[nH]c(=O)n2[C@@H]1CCCN(C)C1 [Example 15] :: 7.61
Cc1c(-c2cc3[nH]c(=O)n(C4CCC(N5CCCC(F)C5)CC4)c3cc2C(C)C)cn2ncnc2c1C (stereo not shown) [Example 274] :: 8.17
COc1cc(-c2cc3[nH]c(=O)n([C@@H]4CCCN(C5CCC5)C4)c3cc2C)cn2ncnc12 [Example 69] :: 7.01

Record COc1c(C)c(-c2cc3[nH]c(=O)n(C4CCC(N5CCC(F)(F)CC5)CC4)c3cc2C(C)C)cn2ncnc12 (single isomer, unassigned) [Example 230] , field pIC50: 7.22

Record Cc1cc2c(cc1-c1cc(C)c3ncnn3c1)[nH]c(=O)n2[C@@H]1CCCN(CC#N)C1 [Example 96] , field pIC50: 7.18

---

Target: human TLR8 (Homo sapiens, UniProt Q9NR97)
Assay: TLR8 inhibition reporter assay (HEK-Blue SEAP)
Conditions: HEK-Blue cells overexpressing human TLR8, R848 15.9 μM, 22 hour incubation
Field: label. Allowed values: Criterion met (IC50 < 30 nM) or Criterion not met (IC50 >= 30 nM).

COc1cc(-c2cc3[nH]c(=O)n([C@H]4CC[C@H](N(CC5CC5)CC5CC5)CC4)c3cc2C(C)C)cn2ncnc12 :: Criterion met
CCC(C)N[C@H]1CC[C@@H](n2c(=O)[nH]c3cc(-c4cc(C)c5ncnn5c4)c(C)cc32)CC1 (some centres unmarked) :: Criterion met
CNC(=O)CN1CCC(n2c(=O)[nH]c3cc(-c4cc(C)c5ncnn5c4)c(C)cc32)CC1 :: Criterion not met
COc1cc(-c2cc3[nH]c(=O)n([C@@H]4CCCN(C(C)C)C4)c3cc2C)cn2ncnc12 :: Criterion not met

is_below(IC50, 30 nM) for Cc1c(-c2cc3[nH]c(=O)n([C@H]4CC[C@@H](NCC5CCOCC5)CC4)c3cc2C(C)C)cn2ncnc2c1C ? Criterion met

is_below(IC50, 30 nM) for Cc1cc(-c2cc(C)c3ncnn3c2)cc2[nH]c(=O)n(C3CCN(C(C)C)CC3)c12 ? Criterion not met

is_below(IC50, 30 nM) for COc1cc(-c2cc3[nH]c(=O)n(C4CCC(N5CC(OC)C5)CC4)c3cc2C(C)C)cn2ncnc12 (centres unmarked) [Example 237] ? Criterion met

is_below(IC50, 30 nM) for COc1cc(-c2cc3[nH]c(=O)n([C@H]4CCCN(C5CCOCC5)C4)c3cc2C(C)C)cn2ncnc12 ? Criterion met

is_below(IC50, 30 nM) for CCC(CC)CN1CCC[C@@H](n2c(=O)[nH]c3cc(-c4cc(OC)c5ncnn5c4)c(C(F)(F)F)cc32)C1 ? Criterion not met

is_below(IC50, 30 nM) for Cc1c(-c2cc3[nH]c(=O)n([C@@H]4CCCN(C5COC5)C4)c3cc2C(C)C)cn2ncnc2c1C ? Criterion met

is_below(IC50, 30 nM) for Cc1c(-c2cc3[nH]c(=O)n(C4CCC(N5CCC(F)(F)CC5)CC4)c3cc2C(C)C)cn2ncnc2c1C (single isomer, unassigned) [Example 276] ? Criterion met

is_below(IC50, 30 nM) for Cc1c(-c2cc3[nH]c(=O)n(C4CCC(N5CC6(COC6)C5)CC4)c3cc2C(C)C)cn2ncnc2c1C (single isomer, unassigned) [Example 281] ? Criterion met

is_below(IC50, 30 nM) for COc1cc(-c2cc3[nH]c(=O)n(C4CCC(N5C6CCC5COC6)CC4)c3cc2C(C)C)cn2ncnc12 (single isomer, unassigned) [Example 252] ? Criterion met

is_below(IC50, 30 nM) for COc1cc(-c2cc3[nH]c(=O)n(C4CCN(CCS(C)(=O)=O)CC4)c3cc2C(C)C)cn2ncnc12 ? Criterion met

---

Target: human TLR8 (Homo sapiens, UniProt Q9NR97)
Assay: TLR8 inhibition reporter assay (HEK-Blue SEAP)
Details: HEK-Blue cells overexpressing human TLR8, R848 15.9 μM, 22 hour incubation
compounds and their reported IC50
# output: number + unit

Record COCCNC1CCC(n2c(=O)[nH]c3cc(-c4cn5ncnc5c(OC)c4C)c(C(C)C)cc32)CC1 (stereo not drawn) [Example 258] , field IC50: 0.6 nM

Record COc1cc(-c2cc3[nH]c(=O)n([C@H]4CCCN(C)C4)c3cc2C(C)C)cn2ncnc12 [Example 119] , field IC50: 2.37 nM

Record COc1cc(-c2cc3[nH]c(=O)n([C@H]4CC[C@@H](N(C)C)CC4)c3cc2C)cn2ncnc12 [Example 48] , field IC50: 5.33 nM

Record COc1cc(-c2cc3[nH]c(=O)n([C@H]4CCCN(CC5CC5)C4)c3cc2C(C)C)cn2ncnc12 [Example 127] , field IC50: 2.8 nM

Record Cc1cc2c(cc1-c1cc(C)c3ncnn3c1)[nH]c(=O)n2[C@H]1CC[C@H](N(C)C)CC1 [Example 23] , field IC50: 30.9 nM

Record CCc1cc2c(cc1-c1cc(OC)c3ncnn3c1)[nH]c(=O)n2[C@@H]1CCCN(CC2CCOCC2)C1 [Example 175] , field IC50: 2.23 nM

Record CCc1cc2c(cc1-c1cc(OC)c3ncnn3c1)[nH]c(=O)n2[C@@H]1CCCN(CC2CCCC2)C1 [Example 209] , field IC50: 20.4 nM

Record CCc1cc2c(cc1-c1cc(OC)c3ncnn3c1)[nH]c(=O)n2[C@@H]1CCCN(C(C)C)C1 [Example 172] , field IC50: 1.75 nM
